Each entry below carries its recorded koff.
molecular target: T1, human ERBB3 His tagged, monomeric (human, UniProt P21860 20-643, biotinylated in the Alphascreen assays (sites not given)); test: SPR (Biacore), captured IgG, monomeric ERBB3-His analyte
T1 construct: Used unbiotinylated as Biacore analyte and biotinylated in Alphascreen; treated as one molecule; also called human ERBB3-His (Acrobiosystems); biotinylated monomeric human ERBB3
Write the number in s⁻¹ without appending the unit.

15D03 IgG1null (antibody, V domains shown, Human IgG1null and human Ckappa) VH: QVQLVESGGGLVKPGGSLRLSCAASGFTFSDYGMSWIRQAPGKGLEWVSTISDSGSYIYYADSVKGRFTISRDNAKNSLYLQMNSLRAEDTAVYYCAREWGDYDGFDHWGQGTLVTVSS VL: DIQMTQSPSSLSASVGDRVTITCRASQEISSYLSWYQQKPGKAPKLLIYAASSLQSGVPSRFSGSGSGTDFTLTISSLQPEDFATYYCLQYDSTPLTFGGGTKVEIK
0.003

Q: Item under review: MH1 IgG1null (antibody, V domains shown, Designer (Maximally Humanized) clone; Human IgG1null and human Ckappa) VH: QVQLVESGGGLVKPGGSLRLSCAASGFTFSDYGMSWIRQAPGKGLEWVSTISDSGSYIYYADSVKGRFTISRDNAKNSLYLQMNSLRAEDTAVYYCARELGDYDGFDYWGQGTLVTVSS VL: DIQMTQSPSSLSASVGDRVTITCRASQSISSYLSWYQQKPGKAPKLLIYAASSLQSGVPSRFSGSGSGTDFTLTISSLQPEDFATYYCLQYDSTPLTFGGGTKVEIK . Reported koff?
Result: 0.0035
